assay: Toxicity liver stage against HepG2, at 10uM; type: cell-based; design: test concentration 10 uM, cell line HepG2-A16-CD81EGFP; settings: human, HepG2-A16-CD81EGFP cells; read-out: INHIBITION
readout label: cytotoxicity at 10 µM
Please report the result as a number followed by the unit.

Below: 10 compounds and their reported cytotoxicity at 10 µM.
compound	result
Cc1n[nH]c(C2CN(Cc3csc(C4CCCCC4)n3)CCO2)n1 (centres undefined)	23.8%
CN(CC1Cc2ccccc2CN1C)C(=O)Cc1cccs1 (centres undefined)	-0.661%
CC(C)[C@H](NC(=O)N1CCC(Cc2ccccc2)CC1)C(=O)O	-7.44%
COc1ccc(CNC(=O)NCCc2csc(C)n2)cn1	-7.05%
Cn1c(SCC2OCCc3ccccc32)n[nH]c1=O (centres undefined)	-5.76%
CCNc1ncc(C(=O)NCCCc2ccncc2)cn1	0.562%
Cc1cccc(NS(=O)(=O)c2ccc(C#N)nc2)c1C#N	0.0489%
CC(C)=CCC/C(C)=C/CC(C)(C)CNCc1ccco1	-23.7%
C[C@@H]1CN(c2cc(N3CCC(O)CC3)ncn2)C[C@@]1(O)C1CCC1	-5.73%
COCC(=O)N1CCC(c2nc3ccc(-c4ccccc4)cn3n2)CC1	-0.555%

Below are some compounds; for each one, tell me its cytotoxicity at 10 µM.
1. CC(C1CCN(Cc2cnc(-c3cccs3)nc2)CC1)N(C)C (centres undefined)
2. CN(C(=O)c1ncn2c1CN(C)S(=O)(=O)c1ccccc1-2)C1CC1
3. Cc1ccc(S(=O)(=O)Nc2ccc(-n3cccc3C(=O)O)c(C)c2)cc1
4. COc1ccc(C2(c3nc(-c4cccnc4)no3)CCOCC2)cc1
5. COCC(=O)N1CCC2(CC1)CC(COC)N(Cc1ccccn1)C2 (centres undefined)

**Result**
1: -11.3%; 2: -131%; 3: -3.94%; 4: 13.9%; 5: -101%

Below are some compounds; for each one, tell me its cytotoxicity at 10 µM.
1. CCCn1nc2c(cc1=O)CN(Cc1c(C)noc1C)CC2
2. CCC(C)NC(=O)Cn1ncc2c1c(C)nn2CC (centres undefined)
3. COCCN(CC1CCCN(C2Cc3ccccc3C2)C1)C(=O)CO (centres undefined)
4. Cc1ccc2cc(C(=O)N3CCN(C(=O)c4ccoc4)CC3)[nH]c2c1
5. c1cnnc(N2CCCC2CNCc2nc(-c3ccco3)no2)c1 (centres undefined)
6. OCC1CCCCN1CCn1ccnc1-c1nc2ccccc2[nH]1 (centres undefined)

**Result**
["-5.03%", "3.24%", "-6.93%", "-43.6%", "-10.2%", "8.89%"]

###

Would you mind telling me the reported cytotoxicity at 10 µM of each entry?
assay: Toxicity liver stage against HepG2, at 10uM; type: cell-based; parameters: test concentration 10 uM, cell line HepG2-A16-CD81EGFP; details: human, HepG2-A16-CD81EGFP cells; read-out: INHIBITION
Give bare numbers, in %.

compound	numeric readout
Cn1ncc(Cl)c1C(=O)NCCN1CCC(O)(c2ccc(F)cc2)CC1	4.71

Below are some compounds; for each one, tell me its cytotoxicity at 10 µM.
1. COCc1nn(C(C)C)c2c1CCN(Cc1ccoc1)C2
2. Cc1ccc(Br)cc1S(=O)(=O)NCCc1nnc[nH]1
3. Cc1ncc2c(c1-c1noc(-c3cscn3)n1)CCNC2
4. COCCN(C)C(=O)c1cc2c(s1)CCN2C(=O)C1CC1
5. CCc1nc2ccccc2c(=O)n1CC1(O)CCN(C(=O)C2CC2)CC1
6. COc1ncccc1C(=O)N1CC(c2nc(-c3ccccn3)no2)C1
7. O=S(=O)(c1ccc(F)cc1F)N1CCCCC1c1nnc2n1CCCC2 (stereo not drawn)
8. O=C(COc1ccc(C(F)(F)F)cc1)NS(=O)(=O)c1cccnc1

**Result**
3.33
-5.89
-3.37
-7.38
-18.3
3.19
2.22
-7.44

Below are some compounds; for each one, tell me its cytotoxicity at 10 µM.
1. O=C(c1ccco1)N1C[C@@H]2OCCN(CCN3CCCC3)[C@@H]2C1
2. CCN(Cc1ccccc1)C(=O)CN1CCOC(Cn2cncn2)C1 (stereo not drawn)
3. COCCCC(=O)Nc1cc(Cl)c(Cl)cn1
4. Nc1nc(Cn2ccnc2-c2cc(CN3CCCC3)cs2)cs1
5. O=C(NCC(O)c1ccsc1)Nc1cccs1 (stereo not drawn)

**Result**
1: 1.54; 2: -6.31; 3: 87; 4: 1.4; 5: -8.29

Recorded values, source ChEMBL document CHEMBL4513216.
